- System: LOK
- Construct: gene STK10
- CONDITIONS USED: concentration: 1 μM, replicates: in singlicate; n = 1
Attribute: %Inh

COMPOUND: Nc1nccc(-c2c(-c3ccc(F)cc3)ncn2C2CCN(CC(F)(F)F)CC2)n1
TARGET DESC: LOK
%Inh, %: 2
//
COMPOUND: O=C1NC(=O)C(N2CCc3ccccc32)=C1c1cccc(Cl)c1
TARGET DESC: LOK
%Inh, %: 0
//
COMPOUND: CCn1cnc2c(N)ncnc21
TARGET DESC: LOK
%Inh, %: 25
//
COMPOUND: O=c1cc(N2CCOCC2)nc2n(Cc3cccc4ccccc34)ccn12
TARGET DESC: LOK
%Inh, %: 0
//
COMPOUND: c1ccc(-c2cc(-c3c[nH]nc3-c3ccccn3)ccn2)cc1
TARGET DESC: LOK
%Inh, %: 0
//
COMPOUND: CSc1ccc(-c2cc3ncnc(SCC(=O)O)c3s2)cc1
TARGET DESC: LOK
%Inh, %: 19
//
COMPOUND: Cn1ccc2ncnc(Oc3ccc(NC(=O)Nc4ccncc4)c(Cl)c3)c21
TARGET DESC: LOK
%Inh, %: 14
//
COMPOUND: Cc1nnc(-c2ccc3ncc(-c4ccc(S(C)=O)cc4)n3c2)o1 (centres unmarked)
TARGET DESC: LOK;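 further: KINOMEscan kinase panel screen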
%Inh, %: 0
